Value source: ChEMBL document CHEMBL4229487

Field: inhibition. Provide a value for each of the molecules that follow.
- STUDY_TARGET: Indoleamine 2,3-dioxygenase 1 (Homo sapiens)
- TEST_DETAILS: Inhibition of recombinant human IDO at 10 uM using L-tryptophan as substrate after 60 mins relative to control
API: value field is a number in %; no unit string.

q: For the molecule shown here, Clc1ccc2[nH]c(SCc3ccccc3/C=C/c3ccccc3)nc2c1 , give the reported inhibition.
a: -6

q: For the molecule shown here, Clc1ccc2[nH]c(SCc3ccccc3CCCc3ccccc3)nc2c1 , give the reported inhibition.
a: 19

q: For the molecule shown here, c1ccc(CCc2ccccc2CSc2ncc[nH]2)cc1 , give the reported inhibition.
a: 19

q: For the molecule shown here, c1ccc(CCc2ccccc2CSC2=NCCS2)cc1 , give the reported inhibition.
a: 0

q: For the molecule shown here, Clc1ccc2[nH]c(SCc3ccccc3SCc3ccccc3)nc2c1 , give the reported inhibition.
a: 19

q: For the molecule shown here, Clc1ccc2sc(SCc3ccccc3CCc3ccccc3)nc2c1 , give the reported inhibition.
a: 9

q: For the molecule shown here, Clc1ccc2[nH]c(SCc3ccccc3/C=C\c3ccccc3)nc2c1 , give the reported inhibition.
a: 49
